Reference source for all entries: PubChem BioAssay (NCI)

# System: HOP-92 NSCLC
# PROCEDURE SUMMARY: NCI-60 one-dose screen, 48 h (100 = growth as untreated, 0 = no growth, -100 = all killed)
# CONDITION LABEL: 10 µM unless noted
This is part of a sample that, as a whole, favours compounds with a hit. Of some 83,000 tested, about 20% had one in any assay.
The entries below come with measured growth values attached.
Give a bare numeral; the unit % is implied.

Use the examples below as a reference point.
- MOLECULE: "C=C1CCc2nc(SCC(=O)O)ccc2N1"
  growth / %: 120
- MOLECULE: "O=C(COc1ccc(/C=C2\\C(=O)Nc3ccc(F)cc32)cc1)Nc1ccccc1"
  growth / %: 116
- MOLECULE: "Cc1cc2nc3c4cc(C#N)ccc4n(CCN(C)C)c3nc2cc1C"
  growth / %: -19.1
- MOLECULE: "Cc1ccc2c(n1)C(=O)C(Cl)=C(Nc1ccc(C(F)(F)F)cc1)C2=O"
  growth / %: 71.3
- MOLECULE: "NS(=O)(=O)c1ccc(Nc2nc(N/N=C/c3ccc4c(c3)OCO4)nc(Nc3ccccc3)n2)cc1"
  growth / %: 66

IN: Note growth for the molecule shown: `CN1CCN(c2ccc(Nc3nc(NCCNS(=O)(=O)c4ccc5ccccc5c4)c4sccc4n3)cc2)CC1`
OUT: 47.8

IN: Return growth for the following molecule: `CC(=O)Nc1nc(C)c(-c2csc(Nc3ccccc3)n2)s1`
OUT: 24.6

IN: Report measured growth; entry is `NS(=O)(=O)c1nnc(/N=C/c2c(O)[nH]c3ccccc23)s1`
OUT: 88.1

IN: Complete the entry with growth for `CC(C)(O)c1cncc(-c2ccc3ncc(C#N)c(N4CCc5cc(F)c(Cl)cc54)c3c2)c1`
OUT: -8.73

IN: Given `Cc1ccc(N2CCN(C3=C(Cl)C(=O)c4ncccc4C3=O)CC2)cc1` , respond with its growth.
OUT: 84.4

IN: Consider the molecule `Cc1ccccc1N1CCN(C2=C(Cl)C(=O)c3ncccc3C2=O)CC1` and give its recorded growth.
OUT: 118

IN: Indicate its recorded growth; the molecule in question is `CCCCc1nc2c(N)nc3ccccc3c2n1Cc1cccc(CN)c1`
OUT: -0.82

IN: Give the value of growth reported for the following: CCOP(=O)(OCC)OC[C@]12CCC(C)(C)CC1C1=CC[C@@H]3[C@@]4(C)CCCNC(C)(C)[C@@H]4CC[C@@]3(C)[C@]1(C)CC2 (some centres not stated)
OUT: 64.8

IN: For the molecule `N#Cc1c(-c2ccc(Br)cc2)cc(-c2c[nH]c3ccccc23)nc1N` , give its measured growth value.
OUT: 43.6

IN: Given `O=c1c2cc(-c3ccc(F)cc3F)ccc2n(O)c(=O)n1-c1cccc(C(F)(F)F)c1` , respond with its growth.
OUT: -30

IN: State, in one line, measured growth of `O=C(/C=C/c1ccc(F)cc1)Nc1cccc2cccnc12`
OUT: 108

IN: Quick one: give measured growth for `COC(=O)CCSC1=C(C)C(=O)c2ccccc2C1=O`
OUT: 88.6

* * *

# Test system: SK-OV-3 ovarian
# PROCEDURE SUMMARY: NCI-60 one-dose screen, 48 h
# CONDITION LABEL: 10 µM unless noted
The panel holds about 83,000 compounds, 20% with a hit somewhere; the sample as a whole holds those more often. Active and inactive are the calls of the source. How the source made its calls: active means growth percent below 10; inactive means the rest.
Outcome field: choose from true (1) for active, false (0) for inactive

- COMPOUND SMILES: "C#CCOc1cccc(-c2nc(N)nc(Nc3ccccc3SSc3ccccc3Nc3nc(N)nc(-c4cccc(OCC#C)c4)n3)n2)c1"
  CLASS LABEL: "false (0)"
- COMPOUND SMILES: "CC(C)Sc1nc(-c2ccccc2)c(C#N)c(N2CCOCC2)n1"
  CLASS LABEL: "false (0)"

IN: Can you look up the reported call for `Cn1c(SCC(=O)c2ccc(Br)cc2)nc2ccccc2c1=O` for me?
OUT: false (0)

IN: // outcome(item) with item = `CNC(=O)c1cc(Oc2ccc3c(c2)sc2nc(-c4ccc(N(C)C)cc4)cn23)ccn1`
OUT: false (0)

IN: Fill in: this test's call for `CN1CCN(Cc2ccc(NC(=O)c3cncc(C#Cc4cnc5ccc(OC6CCOCC6)nn45)c3)cc2C(F)(F)F)CC1` is ___
OUT: true (1)
